Give Avg % ID, Pancreas for every item shown.
Assay Summary: Biodistribution of radiometal-DOTA-BBN conjugates in CF1 normal mice
Test Conditions: 1 hour post-injection
Numbers only; they are read as % ID.

Look up Avg % ID, Pancreas for this compound: CSCC[C@H](NC(=O)[C@H](CC(C)C)NC(=O)[C@H](Cc1cnc[nH]1)NC(=O)CNC(=O)[C@@H](NC(=O)[C@H](C)NC(=O)[C@H](Cc1c[nH]c2ccccc12)NC(=O)[C@H](CCC(N)=O)NC(=O)CCNC(=O)CN1CCN(CC(=O)O)CCN(CC(=O)O)CCN(CC(=O)O)CC1)C(C)C)C(N)=O [111In-DOTA-β-Ala-BBN[7-14]NH2] [metal not drawn] 1.84

Look up Avg % ID, Pancreas for this compound: CSCC[C@H](NC(=O)[C@H](CC(C)C)NC(=O)[C@H](Cc1cnc[nH]1)NC(=O)CNC(=O)[C@@H](NC(=O)[C@H](C)NC(=O)[C@H](Cc1c[nH]c2ccccc12)NC(=O)[C@H](CCC(N)=O)NC(=O)CCNC(=O)CN1CCN(CC(=O)O)CCN(CC(=O)O)CCN(CC(=O)O)CC1)C(C)C)C(N)=O [149Pm-DOTA-β-Ala-BBN[7-14]NH2] 0.46
